- Target system: pancreatic lipase (Sus scrofa)
Peptide text beside a SMILES is read from it.
Experimental endpoint: Ki (µM)

Compound	Experimental endpoint	Unit of measure	Test result
N[C@@H](Cc1c[nH]cn1)C(=O)N[C@@H](Cc1c[nH]c2ccccc12)C(=O)N1CCC[C@H]1C(=O)O [HWP] (H-His-Trp-Pro-OH)	Ki	µM	2580

====

Each entry below carries its reported pKi.
- Target system: ACE (Homo sapiens)
- Construct: purchased Sigma Co., St. Louis, Missouri, United States
- Measurement notes: Inhibitory kinetic analysis of ACE (Lineweaver-Burk)
- Format: biochemical
- Protocol conditions: sample 1 mg/mL, FAPGG 0.2-1 mM; read-out: inhibitory binding constant (Ki), ACE
pKi: −log10 of the molar value. Peptide text beside a SMILES is read from it.

Compound	Target system	pKi
CC(C)[C@H](N)C(=O)N[C@@H](Cc1ccc(O)cc1)C(=O)NCC(=O)N[C@@H](Cc1ccccc1)C(=O)O [VYGF] (H-VYGF-OH)	ACE (Homo sapiens)	3.03
N[C@@H](Cc1c[nH]cn1)C(=O)N[C@@H](Cc1c[nH]c2ccccc12)C(=O)N1CCC[C@H]1C(=O)O [HWP] (H-His-Trp-Pro-OH)	ACE (Homo sapiens)	2.87

====

Each entry below carries its reported IC50.
- Target system: ACE (Homo sapiens, UniProt P12821)
- Sequence (P12821 30-1306): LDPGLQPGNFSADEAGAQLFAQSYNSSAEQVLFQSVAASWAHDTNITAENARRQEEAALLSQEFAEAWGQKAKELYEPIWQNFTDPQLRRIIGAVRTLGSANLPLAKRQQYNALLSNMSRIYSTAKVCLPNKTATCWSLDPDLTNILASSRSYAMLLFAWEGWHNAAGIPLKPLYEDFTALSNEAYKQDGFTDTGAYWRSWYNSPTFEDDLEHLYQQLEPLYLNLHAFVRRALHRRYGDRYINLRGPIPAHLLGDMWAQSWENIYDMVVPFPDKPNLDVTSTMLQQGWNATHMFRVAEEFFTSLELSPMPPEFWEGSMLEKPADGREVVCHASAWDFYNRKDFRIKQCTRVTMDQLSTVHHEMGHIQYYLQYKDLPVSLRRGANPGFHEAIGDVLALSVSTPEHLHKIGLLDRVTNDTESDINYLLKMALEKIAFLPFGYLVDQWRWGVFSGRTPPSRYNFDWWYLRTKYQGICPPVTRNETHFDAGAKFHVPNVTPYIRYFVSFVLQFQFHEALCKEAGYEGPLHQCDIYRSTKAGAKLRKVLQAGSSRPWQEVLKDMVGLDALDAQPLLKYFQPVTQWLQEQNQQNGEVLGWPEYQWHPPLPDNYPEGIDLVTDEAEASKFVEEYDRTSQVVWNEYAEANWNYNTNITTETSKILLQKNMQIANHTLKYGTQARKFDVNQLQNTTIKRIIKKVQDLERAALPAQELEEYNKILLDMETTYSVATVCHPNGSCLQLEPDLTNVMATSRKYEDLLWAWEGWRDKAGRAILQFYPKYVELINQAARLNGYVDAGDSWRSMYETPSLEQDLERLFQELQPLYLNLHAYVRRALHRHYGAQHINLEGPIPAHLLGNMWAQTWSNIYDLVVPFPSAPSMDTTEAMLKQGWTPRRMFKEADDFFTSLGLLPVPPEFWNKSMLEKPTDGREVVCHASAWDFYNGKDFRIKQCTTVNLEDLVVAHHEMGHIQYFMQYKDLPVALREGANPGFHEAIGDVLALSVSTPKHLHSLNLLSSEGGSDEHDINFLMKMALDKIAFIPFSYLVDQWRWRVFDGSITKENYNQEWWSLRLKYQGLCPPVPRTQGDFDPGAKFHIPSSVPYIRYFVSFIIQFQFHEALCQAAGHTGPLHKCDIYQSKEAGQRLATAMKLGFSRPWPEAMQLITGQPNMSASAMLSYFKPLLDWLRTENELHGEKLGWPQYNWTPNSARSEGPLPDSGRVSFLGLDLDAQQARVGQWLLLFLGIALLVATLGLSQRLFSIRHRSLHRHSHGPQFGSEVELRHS
Peptide text beside a SMILES is read from it.

Compound	IC50 / µM
N[C@@H](Cc1c[nH]cn1)C(=O)N[C@@H](Cc1c[nH]c2ccccc12)C(=O)N1CCC[C@H]1C(=O)O [HWP] (H-His-Trp-Pro-OH)	2280
CC(C)[C@H](N)C(=O)N[C@@H](Cc1ccc(O)cc1)C(=O)NCC(=O)N[C@@H](Cc1ccccc1)C(=O)O [VYGF] (H-VYGF-OH)	2060

====

- Target system: pancreatic lipase (Sus scrofa, UniProt P00591)
- Construct: purchased Sigma Co., St. Louis, Missouri, United States
- Sequence (P00591 whole entry): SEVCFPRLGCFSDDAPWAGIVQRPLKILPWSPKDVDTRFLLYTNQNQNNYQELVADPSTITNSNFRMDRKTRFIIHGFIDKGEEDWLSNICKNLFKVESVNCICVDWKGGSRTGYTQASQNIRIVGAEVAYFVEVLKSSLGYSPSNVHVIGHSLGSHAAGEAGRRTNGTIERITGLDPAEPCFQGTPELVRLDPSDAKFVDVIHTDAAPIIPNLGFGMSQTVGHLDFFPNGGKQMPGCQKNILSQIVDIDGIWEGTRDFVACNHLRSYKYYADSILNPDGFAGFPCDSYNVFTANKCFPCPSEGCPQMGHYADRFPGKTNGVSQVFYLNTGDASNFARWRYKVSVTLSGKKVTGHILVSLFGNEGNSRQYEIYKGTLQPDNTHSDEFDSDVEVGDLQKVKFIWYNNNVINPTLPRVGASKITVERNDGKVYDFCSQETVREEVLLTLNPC
- Measurement notes: Pancreatic lipase inhibitory activity of peptides (pNPB substrate, absorbance 405 nm)
- Format: biochemical
- Protocol conditions: gradient test of concentration, Figure 1C
pIC50: −log10 of the molar value. Peptide text beside a SMILES is read from it.

Compound	pIC50
N[C@@H](Cc1c[nH]cn1)C(=O)N[C@@H](Cc1c[nH]c2ccccc12)C(=O)N1CCC[C@H]1C(=O)O [HWP] (H-His-Trp-Pro-OH)	2.05
